test system: A-427; assay: relative viability (nuclei count vs DMSO), 5 days (fraction); higher = more cells survive; conditions: first compound 2 µM
relative viability: recorded values
Returns: the value as a bare number; no unit string appended.

COCC1(CO)C(=O)C2CCN1CC2 (stereo unspecified) [PRIMA-1MET] + CC1(C)CCC(c2ccc(Cl)cc2)=C(CN2CCN(c3ccc(C(=O)NS(=O)(=O)c4ccc(N[C@H](CCN5CCOCC5)CSc5ccccc5)c(S(=O)(=O)C(F)(F)F)c4)cc3)CC2)C1 [Navitoclax] (partner 0.5 µM) = 0.961
COCC1(CO)C(=O)C2CCN1CC2 (stereo unspecified) [PRIMA-1MET] + CCNC(=O)c1noc(-c2cc(C(C)C)c(O)cc2O)c1-c1ccc(CN2CCOCC2)cc1 [Luminespib] (partner 0.01 µM) = 0.714

Need relative viability of COCC1(CO)C(=O)C2CCN1CC2 (stereo unspecified) [PRIMA-1MET] + COc1cccc2cc(-c3nc([C@H]4CC[C@H](C(=O)O)CC4)n4ncnc(N)c34)[nH]c12 [OSI-027] (partner 0.5 µM) , thanks.
0.389

Requested field: relative viability. Item: COCC1(CO)C(=O)C2CCN1CC2 (stereo unspecified) [PRIMA-1MET] + Nc1nc2[nH]cc(CCc3ccc(C(=O)N[C@@H](CCC(=O)O)C(=O)O)cc3)c2c(=O)[nH]1 [Pemetrexed] (partner 0.2 µM)
0.953

Can you share its relative viability? I mean this compound: COCC1(CO)C(=O)C2CCN1CC2 (stereo unspecified) [PRIMA-1MET] + NC(=O)Nc1cc(-c2cccc(F)c2)sc1C(=O)N[C@H]1CCCNC1 [AZD7762] (partner 0.2 µM)
0.756

# query: relative viability of entry COCC1(CO)C(=O)C2CCN1CC2 (stereo unspecified) [PRIMA-1MET] + CS(=O)(=O)N1CCN(Cc2cc3nc(-c4cccc5[nH]ncc45)nc(N4CCOCC4)c3s2)CC1 [Pictilisib] (partner 1 µM)
0.528

###

test system: NCI-H1666; experiment: relative viability (nuclei count vs DMSO), 5 days (fraction); higher = more cells survive; conditions: first compound 0.03162 µM
Quick list: relative viability per entry.
The answer should be a number; do not append a unit.

O=c1cc(N2CCOCC2)oc2c(-c3cccc4c3sc3ccccc34)cccc12 + CC1(C)CCC(c2ccc(Cl)cc2)=C(CN2CCN(c3ccc(C(=O)NS(=O)(=O)c4ccc(N[C@H](CCN5CCOCC5)CSc5ccccc5)c(S(=O)(=O)C(F)(F)F)c4)cc3)CC2)C1 [Navitoclax] (partner 0.5 µM) = 0.899

Request body: readout relative viability, system NCI-H1666, query CCN(CC)CCCCNc1ncc2cc(-c3cc(OC)cc(OC)c3)c(NC(=O)NC(C)(C)C)nc2n1 + CC(=O)Nc1cccc(-n2c(=O)n(C3CC3)c(=O)c3c(Nc4ccc(I)cc4F)n(C)c(=O)c(C)c32)c1 [Trametinib] (partner 0.02 µM) . Return the value.
0.834

For the record CCN(CC)CCCCNc1ncc2cc(-c3cc(OC)cc(OC)c3)c(NC(=O)NC(C)(C)C)nc2n1 + NC(=O)Nc1cc(-c2cccc(F)c2)sc1C(=O)N[C@H]1CCCNC1 [AZD7762] (partner 0.2 µM) , what value of relative viability is listed for NCI-H1666?
0.848

Please tell me: relative viability of O=c1cc(N2CCOCC2)oc2c(-c3cccc4c3sc3ccccc34)cccc12 + CCNC(=O)c1noc(-c2cc(C(C)C)c(O)cc2O)c1-c1ccc(CN2CCOCC2)cc1 [Luminespib] (partner 0.01 µM) , system NCI-H1666?
1.01

Sourced from the supplement of paper PMC10307832
